system: ryegrass, Italian (Italian ryegrass, Lolium multiflorum); assay: Test C greenhouse herbicide test, pre- and postemergence; type: in vivo; conditions: Preemergence, 31 g ai/ha; scale 0 to 100, 0 is no effect, 100 is complete control
Given measured Plant response rating, Ryegrass, Italian, output Condition met if it is greater than or equal to 60 and Condition not met if not.

In [3]: df
Out[3]:
                                 smiles  discrete_label
0  Cc1ccc2ccccc2c1-c1c(O)c(Br)nn(C)c1=O   Condition met

API: above_or_equal(metric=Plant response rating, Ryegrass, Italian, cutoff=60) for item Cc1ccc2sc(C)c(-c3c(OC(=O)OC(C)C)c(C)nn(C)c3=O)c2c1
Condition not met

API: above_or_equal(metric=Plant response rating, Ryegrass, Italian, cutoff=60) for item CCCC(=O)Oc1c(C)nn(C)c(=O)c1-c1c(C)sc2ccc(C)cc12
Condition not met

API: above_or_equal(metric=Plant response rating, Ryegrass, Italian, cutoff=60) for item Cc1ccc2ccccc2c1-c1c(OC(=O)OC(C)C)c(C)nn(C)c1=O
Condition met

API: above_or_equal(metric=Plant response rating, Ryegrass, Italian, cutoff=60) for item COC(=O)Oc1cnn(C)c(=O)c1-c1c(C)sc2ccccc12
Condition not met

Cited source for all entries: patent US10597388B2
